test system: SR; assay: NCI tumour cell line growth inhibition, 48 h
Calls of active or inactive are those of the source. No stated cut-off is given here; in the data, active = GI50 up to about 1.1 µM and inactive = higher.
Would you kindly list GI50 for each of these molecules?

Solved cases below.
Cc1cc2c(c(C(=O)NCCC(=O)O)c1)Oc1c(cc(C)cc1C(=O)NCCC(=O)O)S2; > 100 µM (inactive)
O=P1(Cc2ccccc2)N(Cc2ccccc2)[C@@H]2CCCC[C@H]2N1Cc1ccccc1; 2.69 µM (inactive)
COC(=O)Cn1c(=O)oc2nc(-c3ccccc3)cc(C(F)(F)F)c21; 62.2 µM (inactive)
COC(=O)/C([Se]c1c(C)cc(C)cc1C)=C(/[Se]c1c(C)cc(C)cc1C)C(=O)OC; 39.9 µM (inactive)
C=CCNC(=S)N1c2ccccc2NC(=O)CC1C (stereo not given); > 100 µM (inactive)
COc1cc2c(c(OC)c1OC)-c1ccc(SC)c(=O)cc1[C@@H](NC(=O)c1ccc(C#N)cc1)CC2; < 0.01 µM (active)
O=C1NC2(CCNCC2)Oc2ccccc21; > 100 µM (inactive)
COc1cc2c(cc1OC)C(Cc1ccccc1CCCl)=NCC2; 84.1 µM (inactive)
COc1cc(OC)c2c(c1)C(=O)C(CC1(C)OCCCO1)=CC2=O; 1.29 µM (inactive)

Turning now to a further record.
Form field: reported GI50 of COc1ccc(Cc2nc3cc(Cl)ccc3o2)cc1
23.7 µM (inactive)

* * *

tested on: SF-295; assay: NCI tumour cell line growth inhibition, 48 h
Activity calls are given as the source filed them. Rule as the data show it: active = GI50 up to about 1.1 µM and inactive = higher.
Your response should consist of one outcome taken from true = active, false = inactive

Short answer needed: outcome of this test for Cc1c(-c2ccc(-c3ccccc3F)cc2)nc2ccc(F)cc2c1C(=O)O [BREQUINAR SODIUM] ?
true

Short answer needed: outcome of this test for O=C(Nc1nc(C23CC4CC(CC(C4)C2)C3)cs1)c1cc2cc([N+](=O)[O-])ccc2oc1=O ?
false

Short answer needed: outcome of this test for CCOC(=O)c1nc2cc(N3CCOCC3)c(F)cc2[nH]c1=O ?
false

Short answer needed: outcome of this test for CCOC(=O)Oc1ccc2c(c1)c(=O)c1c(NCCN(CC)CC)ccc3nnn2c31 ?
false

Short answer needed: outcome of this test for CCOC(=O)C1(Br)C(c2ccccc2)NC(=O)NC1(C)Br (stereo not given) ?
false

* * *

tested on: Hs-578T; experiment: NCI tumour cell line growth inhibition, 48 h
Calls of active or inactive are those of the source. No stated cut-off is given here; in the data, active = GI50 up to about 1.1 µM and inactive = higher.
Would you kindly list GI50 for each of these molecules?

Solved cases below.
Cc1ccc(C2(c3ccc(Cl)cc3)c3ccccc3C3=NCCN32)cc1 (stereo unspecified); 14.2 µM (inactive)
CCOc1ccc(NC(=O)/C=C/c2ccco2)cc1; 65 µM (inactive)
O=c1cc(CNC2CCCC2)[nH]c(=O)[nH]1; > 100 µM (inactive)
Nc1nc(SCC(=O)O)nc(O)c1N; > 100 µM (inactive)
CO[C@@H]1C[C@H](OC(N)=O)[C@@H]2C=C[C@@H]3/C=C(C)/C=C/[C@@H](C)[C@H](/C(C)=C/[C@@H](C)NC(C)=O)OC(=O)/C=C/C=C(C)\C=C\[C@]3(C)[C@@H]2C1 [SUPERSTOLIDE B]; < 0.005 µM (active)
CCC(=O)/C=C/c1ccccc1; 21.8 µM (inactive)
O=C1CC2(CCNCC2)C(=O)N1N1CCCCC1; > 100 µM (inactive)
COc1cc2c(c3nc4ccccc4nc13)-c1ccc(SC)c(=O)cc1[C@@H](NC(C)=O)CC2; 0.0182 µM (active)
COc1cc(Nc2cnc3cc(F)c(F)cc3n2)cc(OC)c1OC; 63.2 µM (inactive)
Nn1c(Sc2nc3ccccc3c(=O)n2N)nc2ccccc2c1=O; 17.1 µM (inactive)

Field: GI50. Fill in for each record below.
1. COc1ccc(N[S+]([O-])C2CCCCC2)cc1 (stereo unspecified)
2. CCCC(C)c1c(Cl)nc(Cl)nc1Cl (stereo unspecified)

["> 100 µM (inactive)", "9.38 µM (inactive)"]

* * *

Would you kindly list GI50 for each of these molecules?
system: A498; assay: NCI tumour cell line growth inhibition, 48 h
Calls of active or inactive are those of the source. No stated cut-off is given here; in the data, active = GI50 up to about 1.1 µM and inactive = higher.

Solved cases below.
CCN(CC)CCCNc1n[n+]([O-])c2ccccc2[n+]1[O-]; 3.62 µM (inactive)
O=[N+]([O-])c1cccc(-c2cn3c(n2)Cc2ccccc2C3)c1; 16.9 µM (inactive)
Brc1ccc(/N=N/N2CCCCC2)cc1; 57.5 µM (inactive)

Field: GI50. Fill in for each record below.
1. COc1ccc2c(O)c1-c1c(OC)ccc(c1O)SSc1ccc(OC)c(c1O)-c1c(OC)ccc(c1O)SS2
2. CC(=O)N1C(=O)c2cc3ccccc3cc21
3. O=C1CC2(CCNCC2)C(=O)N1N1CCCCC1
4. CC1OC(OC2C(O[C@H]3CC[C@@]4(C)C(=CC[C@H]5[C@@H]6C[C@@H]7O[C@]8(CC[C@@H](CO)CO8)[C@@H](C)[C@@H]7[C@@]6(C)CC[C@@H]54)C3)OC(CO)C(O)C2OC2OC(CO)C(O)C(O)C2O)C(O)C(O)C1O (some centres not stated)
5. COc1cccc2nc3ccccc3nc12
6. Cc1ccc(Oc2ccccc2N)cc1
7. Cc1cc(S(=O)(=O)Nc2nc(-c3ccccn3)n[nH]2)c(S)cc1Cl

1: > 100 µM (inactive); 2: 24.7 µM (inactive); 3: > 100 µM (inactive); 4: 2.01 µM (inactive); 5: 76.9 µM (inactive); 6: > 100 µM (inactive); 7: 16.9 µM (inactive)

Field: GI50. Fill in for each record below.
1. C/C(=N\c1cc(Cl)cc(Cl)c1)c1ccncc1
2. COc1cc2c(cc1OC)C(Cc1ccccc1CCCl)=NCC2

1. > 100 µM (inactive)
2. > 100 µM (inactive)

* * *

tested on: SF-268; experiment: NCI tumour cell line growth inhibition, 48 h
Active and inactive are the calls of the source. No stated cut-off is given here; in the data, active = GI50 up to about 1.1 µM and inactive = higher.
Your response should consist of one outcome taken from active, inactive

CC1(C(=O)O)CCOc2ccccc21 (stereo unspecified); inactive
C=CCOC(=O)C1=C(CCC[C@@H](C)O[Si](C)(C)C(C)(C)C)N=C(N)N2[C@H](CCO)CC[C@@H]12; inactive
O=P1(Cc2ccccc2)N(Cc2ccccc2)[C@@H]2CCCC[C@H]2N1Cc1ccccc1; inactive

Short answer needed: outcome of this test for Cc1ccc(SCN2CCCCC2)cc1.O=C(Cl)c1ccc([N+](=O)[O-])cc1 ?
inactive

Short answer needed: outcome of this test for CC(=O)Nc1ccc2c3c(cc(O)c2c1)N(C(=O)CCCCCC(=O)N1CC(CCl)c2c1cc(O)c1cc(NC(C)=O)ccc21)CC3CCl (stereo unspecified) ?
active

Short answer needed: outcome of this test for Cc1ccc(C)c(C2NC(=O)c3ccccc3N2)c1 (stereo unspecified) ?
inactive

Short answer needed: outcome of this test for CC1=C(O)C(=O)[C@@H]2O[C@@H]2C1=O ?
inactive

* * *

test system: NCI/ADR-RES; assay: NCI tumour cell line growth inhibition, 48 h
Counter-ions that a name gives are not always drawn. The source made the active and inactive calls. Rule as the data show it: active = GI50 up to about 1.1 µM and inactive = higher.
Your response should consist of one outcome taken from t (active), f (inactive)

CN(C)CCOC(=O)COc1ccc(Cl)cc1 [CENTROPHENOXINE HYDROCHLORIDE]; f
CSCC[C@@H](NC(=O)[C@H](CC(C)C)NC(=O)C(Cc1cnc[nH]1)NC(=O)CNC(=O)[C@@H](NC(=O)[C@H](C)NC(=O)[C@H](Cc1c[nH]c2ccccc12)NC(=O)[C@H](CCC(N)=O)NC(=O)[C@@H](N)CC(N)=O)C(C)C)C(N)=O (some centres not stated); f
COC(=O)C(=O)C(C(=O)C(=O)Nc1ccc(C)c(C)c1)c1nc2ccc([N+](=O)[O-])cc2nc1O (configuration not stated); f
CO[C@@H]1C[C@H](OC(N)=O)[C@@H]2C=C[C@@H]3/C=C(C)/C=C/[C@@H](C)[C@H](/C(C)=C/[C@@H](C)NC(C)=O)OC(=O)/C=C/C=C(C)\C=C\[C@]3(C)[C@@H]2C1 [SUPERSTOLIDE B]; t
Oc1ccc2ccccc2c1/N=N/c1cc(Cl)ccc1Cl; f
COc1ccc(C(SCCO)(c2ccc(OC)cc2)c2ccc(OC)cc2)cc1; f

Could you now consider this next compound?
Short answer needed: outcome of this test for O=P1(Oc2ccc(Cl)cc2Cl)Oc2cc3ccccc3cc2O1 ?
f

* * *

test system: TK-10; assay: NCI tumour cell line growth inhibition, 48 h
Activity calls are given as the source filed them. Cut-off read from the data, not from the text of the source: active = GI50 up to about 1.1 µM and inactive = higher.
Your response should consist of one outcome taken from active, inactive

CCOC(=O)C1(Cc2ccc3c(c2)CCC3)Cc2cc3c(cc2C1)CCC3; inactive
CN(C)c1ccc(/C=C2\N=C(N/N=C/c3ccccc3O)NC2=O)cc1; inactive

Short answer needed: outcome of this test for CCCCC#C[I+]c1ccccc1 ?
inactive

Short answer needed: outcome of this test for C/C1=C/C(=O)O[C@@H]2C[C@@H](CC[C@H](C)/C=C\C=C\CC1)O[C@@](O)([C@@H]1CSC(=O)N1)C2 ?
active

Short answer needed: outcome of this test for CCCCCCCCCCOC1C(C(C)OCCCN(C)C)OC2OC3(CCCCC3)OC21 (stereo not given) ?
inactive
